observation.type: melting point

molecule: CCC(=O)OC1=CC(=O)CC(NC(=O)N(C)C)C1 (centres undefined)
observation.type: melting point
result: 69 to 74 °C
--
molecule: CN(C)c1ccc(C(=O)Nc2cc(C(=O)NCc3ccccc3)ccn2)cc1
observation.type: melting point
result: 160 to 165 °C
--
molecule: C=CC(=O)NC(Cc1ccccc1)C(=O)O (centres undefined)
observation.type: melting point
result: 136 to 138 °C
--
molecule: Cc1cc(C2=NO[C@@](c3cc(Cl)c(F)c(Cl)c3)(C(F)(F)F)C2)ccc1C(=O)NC1CS(=O)(=O)C1
observation.type: melting point
result: 134 to 136 °C
